Value source: paper PMC12051030

Assignment: determine reported IC50 for the given molecules.
biological target: UniProt:Q8ZLD0; assay: FraB-G6PD coupled assay, Michaelis–Menten analysis for K I and mode of inhibition; assay type: biochemical; conditions: Trial 1; 6-P-F-Asp 500 µM, S/Km 11.90476; unit from Fig. S11 axis; read-out: IC50 (IC50 versus [S]/Km plots)

Output measured IC50 for this item: c1ccc(-c2nnc3sc(C4COc5ccccc5O4)nn23)nc1 (centres unmarked)
32.7 µM

Output measured IC50 for this item: O=c1[nH][nH]c(=S)n1Cc1ccccc1
18.7 µM

Output measured IC50 for this item: Cc1cccc(Cl)c1-n1sc(=O)n(CC2CC2)c1=O
4.5819 µM

Output measured IC50 for this item: CC(C)Cc1cc(-c2nn3c(-c4ccccc4Cl)nnc3s2)n[nH]1
19.4 µM

Output measured IC50 for this item: O=c1sn(-c2ccccc2C(F)(F)F)c(=O)n1CC1CC1
1.59 µM

----------
biological target: His6‐FraB (Salmonella FraB deglycase) (Salmonella enterica subsp. enterica serovar Typhimurium); assay: FraB-G6PD coupled assay, Michaelis–Menten analysis for K I and mode of inhibition; format: biochemical; conditions: Trial 2; 6-P-F-Asp 62.5 µM, S/Km 1.488095; unit from Fig. S11 axis; read-out: IC50 (IC50 versus [S]/Km plots)
Sequence (Q8ZLD0 entry or part of it): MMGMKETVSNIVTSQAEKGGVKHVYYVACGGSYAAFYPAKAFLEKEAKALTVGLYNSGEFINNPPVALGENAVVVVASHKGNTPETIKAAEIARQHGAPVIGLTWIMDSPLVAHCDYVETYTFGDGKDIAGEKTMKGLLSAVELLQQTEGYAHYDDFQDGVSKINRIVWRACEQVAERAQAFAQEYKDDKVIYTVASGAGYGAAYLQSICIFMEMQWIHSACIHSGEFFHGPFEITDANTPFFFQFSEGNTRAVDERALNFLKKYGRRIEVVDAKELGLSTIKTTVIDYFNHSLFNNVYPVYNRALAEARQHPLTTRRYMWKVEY
Note to self: IC50 under 30 µM means 1, ties and anything higher get 0.

Below 30 µM on IC50? Entry O=c1sn(-c2ccccc2C(F)(F)F)c(=O)n1CC1CC1
1

Below 30 µM on IC50? Entry CC(C)Cc1cc(-c2nn3c(-c4ccccc4Cl)nnc3s2)n[nH]1
1

Below 30 µM on IC50? Entry c1ccc(-c2nnc3sc(C4COc5ccccc5O4)nn23)nc1 (centres unmarked)
0

Below 30 µM on IC50? Entry O=c1[nH][nH]c(=S)n1Cc1ccccc1
1

Below 30 µM on IC50? Entry Cc1cccc(Cl)c1-n1sc(=O)n(CC2CC2)c1=O
1

----------
Target: UniProt Q8ZLD0
Experiment: FraB-G6PD coupled assay, Michaelis–Menten analysis for K I and mode of inhibition
Type: biochemical
Details: Trial 1; 6-P-F-Asp 31.3 µM, S/Km 0.745238; unit from Fig. S11 axis; read-out: IC50 (IC50 versus [S]/Km plots)
Procedure: To determine the K I of each inhibitor, 29 μL of master mix was added to two rows of a 384‐well Greiner plate, using a single‐channel pipette, and incubated at 20 °C for 20 min. […] The initial velocities used to generate the Michaelis–Menten plots were also employed to obtain the IC50 vs [S]/K m plots. […] The IC50 values determined from the IC50 vs [S]/K m plots were then used to plot 1/IC50 versus v o/V max. […]
value_kind: log10 IC50 (log10 of the value in µM)
Hello, just confirming the data are log10 of IC50 with units of µM.

Output measured log10 IC50 for this item: O=c1[nH][nH]c(=S)n1Cc1ccccc1 [1533:K12]
1.27

Output measured log10 IC50 for this item: O=c1sn(-c2ccccc2C(F)(F)F)c(=O)n1CC1CC1 [1524:G12]
0.19

Output measured log10 IC50 for this item: c1ccc(-c2nnc3sc(C4COc5ccccc5O4)nn23)nc1 (centres unmarked) [3469:F02]
1.53

Output measured log10 IC50 for this item: CC(C)Cc1cc(-c2nn3c(-c4ccccc4Cl)nnc3s2)n[nH]1 [3470:A09]
1.27

Output measured log10 IC50 for this item: Cc1cccc(Cl)c1-n1sc(=O)n(CC2CC2)c1=O [1524:E12]
0.80
